src = patent US10610520B2

Measured inhibition at 10 µM by item
Target: His-hMAGL (recombinant polyhistidine tagged human MAGL protein) (Homo sapiens)
Construct: made in house; host or cells: E. coli BL21(DE3)
Sequence (Q99685 1-303): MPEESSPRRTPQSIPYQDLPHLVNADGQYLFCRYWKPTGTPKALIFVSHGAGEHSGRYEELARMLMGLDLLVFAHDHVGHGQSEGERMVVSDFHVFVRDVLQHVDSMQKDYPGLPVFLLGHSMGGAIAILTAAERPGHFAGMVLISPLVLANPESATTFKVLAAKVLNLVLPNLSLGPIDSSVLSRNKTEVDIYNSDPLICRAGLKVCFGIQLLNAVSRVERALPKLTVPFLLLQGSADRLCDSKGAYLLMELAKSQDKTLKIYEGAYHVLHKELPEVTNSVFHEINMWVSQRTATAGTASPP
Experiment: Measurement of MAGL inhibitory activity (arachidonic acid production from 2-arachidonylglycerol, RapidFire-mass spectrometry)
Assay type: biochemical
Settings: MAGL inhibitory rate, test compound 10 μM, 60 min preincubation, 2-arachidonylglycerol substrate
parameterMeasured: inhibition at 10 µM (%)

compound=Cc1cc(C(=O)N2CC3(CCC(=O)N3)C2)ccc1-c1ccccc1 numericreadout=87
compound=O=C1CCC2(CN(C(=O)c3ccc(-c4ccc5sncc5c4)cc3)C2)N1 numericreadout=97
compound=O=C1NC2(CO1)CN(C(=O)c1sc3c(F)c(OC(F)(F)F)ccc3c1C(F)F)C2 numericreadout=100
compound=O=C1NC2(CO1)CN(C(=O)c1sc3cc(OC(F)(F)F)ccc3c1C(F)(F)F)C2 numericreadout=100
compound=O=C1CCC2(CN(C(=O)c3ccc(-c4cccc5c4OCC5)cc3)C2)N1 numericreadout=93
compound=COc1c(C(=O)N2CC3(COC(=O)N3)C2)sc2c(C(F)(F)F)cccc12 numericreadout=100
compound=O=C1NC2(CO1)CN(C(=O)c1sc3cc(C4=CCC(F)(F)CC4)cc(F)c3c1C1=CCC(F)(F)CC1)C2 numericreadout=100
compound=O=C1CCC2(CN(C(=O)c3sc4cc(C5=CCC(F)(F)CC5)ccc4c3Cl)C2)N1 numericreadout=100
compound=O=C1NC2(CO1)CN(C(=O)[C@H]1C[C@H](OCc3ccc(C(F)(F)F)cc3Cl)C1)C2 numericreadout=100
compound=O=C1CCC2(CN(C(=O)N3CC(COc4ccc(C(F)(F)F)c(F)c4)C3)C2)N1 numericreadout=100
compound=O=C1CCC2(CN(C(=O)N3CCC(Cc4ccc(Cl)c(Cl)c4)CC3)C2)N1 numericreadout=103
compound=O=C1CCC2(CN(C(=O)c3ccc(-c4ccc5sc(C(F)(F)F)nc5c4)cc3)C2)N1 numericreadout=85
compound=Cc1ccc(-c2ccc3c(Cl)c(C(=O)N4CC5(CCC(=O)N5)C4)sc3c2)cn1 numericreadout=99
compound=O=C1CCC2(CN(C(=O)c3sc4cc(F)ccc4c3Cl)C2)N1 numericreadout=99
compound="O=C1CCC2(CCN(C(=O)N3CC(COc4ccc(C(F)(F)F)cc4F)C3)C2)N1 (centres unmarked)" numericreadout=96
compound=Cc1cccc(-c2ccc3c(Cl)c(C(=O)N4CC5(CCC(=O)N5)C4)sc3c2)c1 numericreadout=101
compound=O=C1NC2(CO1)CN(C(=O)[C@H]1C[C@@H](OCc3ccc(C(F)(F)F)cc3Cl)C1)C2 numericreadout=100

* * *

Recorded inhibition at 10 µM values for a group of molecules are listed next.
Biological target: His-hMAGL (recombinant polyhistidine tagged human MAGL protein) (Homo sapiens, UniProt Q99685)
Construct: made in house; host or cells: E. coli BL21(DE3)
Assay: Measurement of MAGL inhibitory activity (arachidonic acid production from 2-arachidonylglycerol, RapidFire-mass spectrometry)
Assay type: biochemical
Conditions: MAGL inhibitory rate, test compound 10 μM, 60 min preincubation, 2-arachidonylglycerol substrate
parameterMeasured: inhibition at 10 µM (%)

molecule="O=C1CCC2(CN(C(=O)N3CCC(Cc4ccc(N5CCCCC5)cc4)CC3)C2)N1 [Example 111]" valueunit=% numericreadout=101
molecule="O=C1CCC2(CN(C(=O)N3CC(COc4cc(Br)c(C(F)(F)F)cc4F)C3)C2)N1 [Example 24]" valueunit=% numericreadout=103
molecule="O=C1NC2(CO1)CN(C(=O)c1sc3c(F)ccc(OC(F)(F)F)c3c1Cl)C2 [Example 301]" valueunit=% numericreadout=100
molecule="O=C1CCC2(CN(C(=O)c3ccc(OCc4ccccc4)cc3)C2)N1 [Example 6]" valueunit=% numericreadout=87
molecule="O=C1CCC2(CN(C(=O)c3cc4cccc(Br)c4s3)C2)N1 [Example 146]" valueunit=% numericreadout=90
molecule="COc1ccc(Cl)c(-c2ccc(C(=O)N3CC4(CCC(=O)N4)C3)cc2)c1 [Example 82]" valueunit=% numericreadout=93
molecule="O=C1NC2(CCN(C(=O)c3sc4cc(C(F)(F)F)c(F)cc4c3Cl)C2)CO1 (centres unmarked) [Example 343]" valueunit=% numericreadout=100
molecule="O=C1CCC2(CN(C(=O)c3sc(-c4cccc(OCC(F)(F)F)c4)cc3Cl)C2)N1 [Example 178]" valueunit=% numericreadout=100
